- Experimental System: human macrophage migration inhibitory factor (MIF) (human, UniProt P14174 2-115)
- Sequence (P14174 2-115 limits assumed): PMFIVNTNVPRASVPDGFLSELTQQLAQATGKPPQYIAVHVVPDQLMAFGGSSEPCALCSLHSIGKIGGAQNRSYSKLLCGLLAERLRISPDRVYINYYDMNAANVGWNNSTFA
- Experiment: cell-based or functional assay
Measured % MIF PPT Activity values are reported for all entries that follow.
Give a bare numeral; the unit % is implied.

For orientation, consider the following solved cases.
[[record]]
binder = "anti-MIF monoclonal antibody 6B5-5 (antibody, V domains shown) VH: DVQLQESGPGLVKPSQSLSLTCTVTGSSITSDYAWHWIRQFPGNKLEWMGYISFSGSTGYNPSLKSRFSITRDTSKNQFFLQLNSVTTEDTATYYCAREAYGYDVGYFDYWGQGTTLTVSS VL: QIVLTQSPAIMSAFPGEKVTITCSASSSVSYMHWFQQKPGTSPKLWIYGTSNLASGVPVRFSGSGSGTSYSLTISRMEAEDAATYYCQQRSSYPWTFGGGTKLEIKR"
reported_metric = "% MIF PPT Activity"
data_value = 82

[[record]]
binder = "anti-MIF monoclonal antibody 33G7-9 (antibody, V domains shown) VH: DVQLQESGPDLVKPSQSLSLTCSVTGYSITSGYYWNWIRQFPGNKLEWVGYLSYDGSKSHNPSLRNRISITRDPSKNQFFLKLNSVTTEDTATYYCARGGKIFYGSSYDPFAYWGQGTLVTVSS VL: DIQMTQSPASLSASVGETVTITCRASENIFNYLSWYQQKQGKSPQLLVYNVKTLTDGVPSRFSGSGSGTQFSLKINSLQPEDFGSYYCQHHYDTPYTFGRGTKLEIKR"
reported_metric = "% MIF PPT Activity"
data_value = 67

[[record]]
binder = "anti-MIF monoclonal antibody 22F11-6 (antibody, V domains shown, Mouse hybridoma antibody from a MIF knockout mouse, purified from ascites; also called Mab 22F11-6) VH: EVKLEESGGGLVQPGGSMKLSCAASGFTFGDAWMYWVRQSPEKGLEWVAEIRSKAHNHATYYAESVKGRFTISRDDSKSSVYLQMSSLRAEDTGIYYCTSHHYGSSWYFDVWGAGTTVTVSS VL: DIQMTQSPASLSASVGETVTITCRASENIYSYLTWFQQKQGKSPQLLVYDAKTLAEGVPSSFSGSGSGTQFSLKIISLQPEHFGSYYCQHHYGRPYTFGGGTKLEIKR"
reported_metric = "% MIF PPT Activity"
data_value = 65

[[record]]
binder = "anti-MIF monoclonal antibody 10B11-3 (antibody, V domains shown, Mouse hybridoma antibody from a MIF knockout mouse, purified from ascites; also called Mab 10B11-3; 1OB11-3) VH: EVQLQQSGPELVKPGASVRISCKTSGYTITEYTMHWMKQSHEKSLEWIGGITPNTGVLSDNQKFRGKATLTVDKSSNTAYMELRSLTSADSAVYYCARRGNNYYGSSPWFAYWGQGTLVTVSA VL: DIQMTQSPASLSVSVGETVTITCRASENIYSNLAWYQQKQGKSPQLLVYAATNLADGVPSRFSGSGSGTQYSLNIYSLQPEDFGSYYCQHFWGTPYTFGGGTKLEIKR"
reported_metric = "% MIF PPT Activity"
data_value = 136


From here, focus on the item given below.
[in] Recall and state the measured % MIF PPT Activity for anti-MIF monoclonal antibody 19B11-7 (antibody, V domains shown, Mouse hybridoma antibody from a MIF knockout mouse, purified from ascites) VH: QIQLVQSGPELKKPGETVKISCKASGYSFRNYGMNWVSQPPGKGLEWMGWINTYTGEPTYADDFKGRFAFSLDTSASTAYLTINNLKNEDTATYFCARSNYGNYFDYWGQGTTLTVSA VL: NIVLTQSPASLALSLGQRATISCRTSESVDSYASSFMHWYQQKPGQSPKLLIYLASNLESGVPARFSGSGSRTDFTLTIDPVEADDAATYYCQQSNEDPRTFGGGTQLEIKR .
[out] 0
